B1: CCDC89 (parent)
chain: LNAELEEKMMQEAEKLKAQGEYSR

- Variants of: B1
- assay.overview: protein stability index of a GFP-peptide fusion (GPS, HEK-293T) (PSI 1-6); higher = more stable;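 further: lentivirally expressed fusions sorted by FACS into six bins by GFP to DsRed ratio, PSI derived from sequencing read proportions per bin multiplied by bin number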
- conditions.used: c terminus: a fixed tail appended
assay.metric: protein stability index

- mutant.designation: "L1K"
  assay.metric: "protein stability index"
  reading: 5.3
- mutant.designation: "K8L"
  assay.metric: "protein stability index"
  reading: 5.19
- mutant.designation: "A13D"
  assay.metric: "protein stability index"
  reading: 5.8
- mutant.designation: "Q19D"
  assay.metric: "protein stability index"
  reading: 5.85
- mutant.designation: "K15V"
  assay.metric: "protein stability index"
  reading: 4.78
- mutant.designation: "L5Q"
  assay.metric: "protein stability index"
  reading: 5.55
- mutant.designation: "Q11S"
  assay.metric: "protein stability index"
  reading: 5.49
- mutant.designation: "K17H"
  assay.metric: "protein stability index"
  reading: 3.87

Reference source: the supplement of paper PMC10567573
